Reported growth inhibition by item:
- test details: NCI Yeast Anticancer Drug Screen. Data for the sgs1 mgt1 strain (AID 161);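 also: 0% = growth of cultures given vehicle only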
- condition label: S. cerevisiae sgs1 mgt1 strain, at 5.0 µM (retest, dose inferred, filed as 0.5), active compounds read high
The panel holds about 79,000 compounds, 15% with a hit somewhere; the sample as a whole holds those more often.
I only need the number, in %, no unit after it.

Reference set, count: 4
CC(C)(C)NCc1cc(C(C)(C)C)cc(-c2ccc(Cl)cc2)c1O : 7
CCc1cc2c(c3c1C(=O)CC3)C(C)(C)CCC2 : 1
N#CC#Cc1cccc(C#CC#N)c1 : 99
ICCCCSc1cc(-c2ccccc2)[o+]c2ccccc12 : 19

// next entry
The compound identified as `Cc1c2ccnc(-c3ccc(F)cc3)c2cc2c1[nH]c1ccccc12` registered its growth inhibition at -26

----------
- test details: NCI Yeast Anticancer Drug Screen. Data for the mlh1 rad18 strain (AID 175)
- condition label: S. cerevisiae mlh1 rad18 strain growth inhibition; at 50.0 µM (retest, dose inferred, filed as 5.0); active compounds read high
- Method: Growth inhibition of yeast strains with defined genetic alterations is measured as a screen for potential anti-cancer activity. Selected strains with alterations in DNA damage repair or cell cycle control were exposed to compounds and growth inhibition was measured relative to vehicle treated controls. The strain used in this assay is mlh1 rad18
Compounds without any hit were thinned out: in the full panel of roughly 79,000, 15% have a hit.
Rule: class 1 for growth inhibition not less than 90%, class 0 for anything less.

CC1CC(c2ccccc2)(c2ccccc2)C(=O)C(C)N1C (centres undefined) : class 0
CCOC(=O)/C(C#N)=C\c1cccc2ccccc12 : class 1
CCCCCCCCCCSC(=NCC)NCC : class 1
CC(C)=NNc1ncnc2nc[nH]c12 : class 0
CCCCCCCCCC1OCC(O)CO1 (centres undefined) (tested in a mixture with another compound) : class 1

Hi, just wondering whether `O=[N+]([O-])c1cc(Cl)cc(C(c2cc(Cl)cc([N+](=O)[O-])c2O)C(Cl)(Cl)Cl)c1O` shows growth inhibition of 90% or higher.
class 1

----------
Reported growth inhibition by item:
- test details: NCI Yeast Anticancer Drug Screen. Data for the rad50 strain (AID 155);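 also: 0% = growth of vehicle-only cultures of the same strain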
- condition label: S. cerevisiae rad50 strain growth inhibition; at 50.0 µM (retest, dose inferred, filed as 5.0); active compounds read high
About 79,000 compounds went through this panel and 15% of them were active in at least one assay; those are over-represented in the sample as a whole.
I only need the number, in %, no unit after it.

COc1ccc(-c2n[nH]c(C(F)(F)F)c2N=NN(C)C)cc1OC : 98
CCCCCCCCCCCCCCCC(=O)NCC[N+](C)(CC)CC : 0

The compound identified as `FC(F)(F)c1nc(Cl)nc2nc[nH]c12` registered its growth inhibition at -9

The compound identified as `CCOC(=O)OC(=S)N(C1CCCCC1)C1CCCCC1` registered its growth inhibition at 58

The compound identified as `Cc1ccc(S(=O)(=O)N/N=C(\C=C\c2ccccc2)c2ccccc2)cc1` registered its growth inhibition at 32

The compound identified as `Oc1ccccc1C1N(Cc2ccc(Cl)cc2)CCN1Cc1ccc(Cl)cc1` registered its growth inhibition at 57

----------
Reported growth inhibition by item:
- test details: NCI Yeast Anticancer Drug Screen. Data for the rad50 strain (AID 155);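 also: 0% = growth of vehicle-only cultures of the same strain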
- condition label: S. cerevisiae rad50 strain growth inhibition; at 5.0 µM (retest, dose inferred, filed as 0.5); active compounds read high
About 79,000 compounds went through this panel and 15% of them were active in at least one assay; those are over-represented in the sample as a whole.
I only need the number, in %, no unit after it.

O=S(=O)(c1cc(Cl)ccc1Cl)N1CCc2ccccc2C1 : 14

The compound identified as `CO/N=C/c1cc(NC(=S)c2ccoc2C)ccc1Cl` registered its growth inhibition at 4

The compound identified as `S=c1sc2ccccc2n1CNc1ccccc1` registered its growth inhibition at -2

The compound identified as CCCCCCCCCCCCCCC(O)C[N+](C)(CCO)CCO (configuration not stated) registered its growth inhibition at 29

The compound identified as `CC(=O)C(C=O)C(C)=O.CC(=O)CC(C)=O.CC(=O)CC(C)=O.[Ru]` registered its growth inhibition at 4

The compound identified as `O=[N+]([O-])c1c(I)ccc2ccccc12` registered its growth inhibition at -24

The compound identified as `FC(F)(F)c1[nH]nc(-c2cccs2)c1N=NN1CCOCC1` registered its growth inhibition at 98

The compound identified as C/C=C/C/S(=N\S(=O)(=O)c1ccc(C)cc1)c1ccccc1 (configuration not stated) registered its growth inhibition at 4

The compound identified as CS(=O)c1cc(=O)c2ccccc2s1 (configuration not stated) registered its growth inhibition at 6

The compound identified as `CCN(C(=O)C(F)(F)F)c1ccc2c(c1)C(=O)c1ccccc1-2` registered its growth inhibition at 0

The compound identified as `COC(=O)/C(C(C)=O)=C(\OC(C)=O)c1ccc(OC)c(OC)c1` registered its growth inhibition at -14

The compound identified as `CCOc1ccc2nc(NC(=O)c3c/c(=N\NC(=O)C[N+](C)(C)C)c4ccc(O)cc4o3)sc2c1` registered its growth inhibition at 57

The compound identified as `COc1cc2c3c(c4ccc(OC)c(OC)c4c2cc1OC)CN1CCC[C@@H]1C3` registered its growth inhibition at 11

The compound identified as `O=[N+]([O-])c1ccc(-c2nc(/C=N/N3CCCCC3)cs2)o1` registered its growth inhibition at 12

The compound identified as `O=c1[nH]cnc2nc(I)[nH]c12` registered its growth inhibition at 1

The compound identified as `O=c1c2ccccc2sc2c(CO)ccc(NCCN3CCCCC3)c12` registered its growth inhibition at -5

The compound identified as `CCNc1cc2c3c(c1)CCCN3CCC2` registered its growth inhibition at 15

The compound identified as `Cc1cccc(O)c(=O)c1` registered its growth inhibition at 12

The compound identified as `COc1ccccc1/C=C1\NC(=S)N(/C=C2\C(=O)Oc3ccccc3C2=O)C1=O` registered its growth inhibition at 8

The compound identified as `O=C1/C(=C/c2ccc3c(c2)OCO3)Sc2scc(-c3ccc(O)c(O)c3)[n+]21` registered its growth inhibition at 25

----------
- test details: NCI Yeast Anticancer Drug Screen. Data for the bub3 strain (AID 167)
- condition label: S. cerevisiae bub3 mutant strain, at 5.0 µM (retest, dose inferred, filed as 0.5), active compounds read high
About 79,000 compounds went through this panel and 15% of them were active in at least one assay; those are over-represented in the sample as a whole.
metric: growth inhibition (%)
I only need the number, in %, no unit after it.

OC(Cc1cccnc1)(c1ccccc1)c1ccc(Cl)cc1 (stereo not drawn) : -3

The compound identified as `NC1CCCCC1N.O=C([O-])c1ccc(N=Nc2cccc([N+](=O)[O-])c2)cc1O.O=C([O-])c1ccc(N=Nc2cccc([N+](=O)[O-])c2)cc1O.[Pt+4]` registered its growth inhibition at 28

The compound identified as CN(C)CC1CCCCCC(Br)C1=O (stereo not drawn) registered its growth inhibition at -7

----------
- test details: NCI Yeast Anticancer Drug Screen. Data for the cln2 rad14 strain (AID 165);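 also: 0% = growth equal to vehicle treated cultures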
- condition label: S. cerevisiae cln2 rad14 strain, at 50.0 µM (retest, dose inferred, filed as 5.0)
About 79,000 compounds went through this panel and 15% of them were active in at least one assay; those are over-represented in the sample as a whole. Active and inactive are the calls of the source. Cut-off read from the data, not from the text of the source: active = growth inhibition above about 70%; inactive = the rest.
Form entry, call: pick from y = active, n = inactive

Solved cases (8 shown):
O=C(Nc1ccc(F)c(Cl)c1)Oc1ccc(Br)cc1Br : n
CCCCCCCCNc1ccc(Cl)cc1 : y
O=[N+]([O-])c1ccc2c(c1)[n+]([O-])c1[nH]c3ccccc3c1[n+]2[O-] (tested in a mixture with another compound) : y
O=C1/C(=C/c2ccc([N+](=O)[O-])cc2)CNC/C1=C\c1ccc([N+](=O)[O-])cc1 : y
CCCCCCCCCC(=O)CC(=O)c1ccc(O)cc1O : y
Nc1ncnc2c1ncn2CC(O)CN(CCO)CCO (stereo not given) (tested in a mixture with another compound) : n
CC(/C=C/c1ccc(Cl)cc1)=N\NC(N)=S : n
CC(=O)N1c2ccccc2Sc2ccc(C(=O)CCl)cc21 : n

Please share the test call associated with `CCC[CH2][Sn]([CH2]CCC)([O]C(=O)c1cc(F)ccc1F)[O]C(=O)c1cc(F)ccc1F` .
n

Please share the test call associated with O=C1CCC(Cc2ccc(I)cc2)C(=O)N1 (stereo not given) .
n

Please share the test call associated with `C(#Cc1ccccc1)Sc1ccccc1` .
n

Please share the test call associated with NC1OC(COC(=O)c2ccccc2)C(O)C(OC(=O)c2ccccc2)C1OC(=O)c1ccccc1 (stereo not given) .
y

Please share the test call associated with O=[N+]([O-])C1=Cc2cc(Cl)ccc2OC1c1cccc2ccccc12 (stereo not given) .
y

Please share the test call associated with `CCCCCCOC(=O)COc1ccccc1` .
n

Please share the test call associated with CSC(=S)OC1CC(n2cnc3c(NC(=O)c4ccccc4)ncnc32)OC1CO[Si](C)(C)C(C)(C)C (stereo not given) .
n

Please share the test call associated with `COC(=O)c1nc(=S)[nH]c(C(=O)OC)c1C(=O)c1c(C)[nH]c2ccccc12` .
n

Please share the test call associated with `Fc1ccc(NC(=S)SCc2ccc(Cl)c(Cl)c2)c(F)c1` .
y

Please share the test call associated with `Oc1[nH]c2ccccc2c1N=NC(=S)NCc1ccccn1` .
y

Please share the test call associated with `COC(=O)c1c(COC(=O)NC(C)C)c2n(c1C)CS(=O)(=O)C2` .
n

Please share the test call associated with `Oc1cccc(NCSc2ccc(Cl)cc2)c1` .
y

Please share the test call associated with Cc1ccc(S(=O)(=O)NNC2Oc3cc4c(cc3C(c3ccccc3O)C2C)OCO4)cc1 (stereo not given) .
y

Please share the test call associated with `NCc1cccc(O)c1O` .
n

Please share the test call associated with COC(=O)c1c(C)cccc1C1CN=NC12Cc1ccc(C)c(C)c1C2=O (stereo not given) .
n

Please share the test call associated with `O=C1C=CC(=Nc2cccc3c2-c2ccccc2C3)O1` .
y
